Reference for the values: ChEMBL document CHEMBL1149597

Listing of entries alongside the reported IC50.
Target sequence: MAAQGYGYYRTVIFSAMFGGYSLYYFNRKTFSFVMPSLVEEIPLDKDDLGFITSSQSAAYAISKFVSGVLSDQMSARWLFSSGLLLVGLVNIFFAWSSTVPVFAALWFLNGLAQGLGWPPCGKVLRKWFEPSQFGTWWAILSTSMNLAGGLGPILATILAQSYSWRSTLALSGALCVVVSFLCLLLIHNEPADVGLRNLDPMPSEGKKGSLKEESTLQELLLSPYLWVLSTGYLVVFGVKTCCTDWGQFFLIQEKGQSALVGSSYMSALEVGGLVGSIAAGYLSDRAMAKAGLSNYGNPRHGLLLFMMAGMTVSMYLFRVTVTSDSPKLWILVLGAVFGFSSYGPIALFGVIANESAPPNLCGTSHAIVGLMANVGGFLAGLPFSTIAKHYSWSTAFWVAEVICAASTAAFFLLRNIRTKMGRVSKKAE

{"columns": ["smilesInput", "IC50 [µM]"],
 "data": [
  ["C=CCCOc1ccccc1/C=C/c1c(C(=O)O)c(OC)cc2c1C(=O)c1c(OC)cccc1C2=O", 20],
  ["COc1cc2c(c(CSc3ccccc3)c1C(=O)O)C(=O)c1c(O)cccc1C2=O", 50],
  ["COc1cc2c(c(/C=C/c3ccccc3)c1C(=O)O)C(=O)c1c(O)cccc1C2=O", 2.5]
]}
